Origin of the recorded values: ChEMBL document CHEMBL3988442

Target: Tyrosyl-tRNA synthetase, putative (Trypanosoma cruzi (strain CL Brener))
Sequence (whole entry): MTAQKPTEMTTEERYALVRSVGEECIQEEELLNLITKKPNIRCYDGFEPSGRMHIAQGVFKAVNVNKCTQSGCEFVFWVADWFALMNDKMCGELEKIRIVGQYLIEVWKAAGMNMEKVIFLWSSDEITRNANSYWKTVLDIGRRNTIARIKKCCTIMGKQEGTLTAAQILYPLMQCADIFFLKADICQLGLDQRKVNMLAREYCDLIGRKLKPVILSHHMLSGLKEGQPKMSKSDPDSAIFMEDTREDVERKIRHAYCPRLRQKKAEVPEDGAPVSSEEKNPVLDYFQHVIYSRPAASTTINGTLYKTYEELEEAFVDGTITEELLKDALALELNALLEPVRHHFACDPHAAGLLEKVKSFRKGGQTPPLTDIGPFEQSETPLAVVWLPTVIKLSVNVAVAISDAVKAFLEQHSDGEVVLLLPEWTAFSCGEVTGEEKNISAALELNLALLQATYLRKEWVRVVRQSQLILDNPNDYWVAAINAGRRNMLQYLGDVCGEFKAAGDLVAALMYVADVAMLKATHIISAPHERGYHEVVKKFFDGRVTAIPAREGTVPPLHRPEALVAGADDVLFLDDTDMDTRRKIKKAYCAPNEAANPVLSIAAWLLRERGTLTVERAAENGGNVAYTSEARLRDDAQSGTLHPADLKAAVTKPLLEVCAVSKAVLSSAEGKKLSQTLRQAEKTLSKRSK
Assay: Trypanosoma cruzi tyrosyl tRNA synthetase (TcYRS) SOP
Format: functional
Design: scale not given: direction of the effect not stated beside the values
Conditions: 30 µM
Flag rule - Percent Effect less than 20% flags class 1; the remaining entries get class 0.

Solved entries (count: 8):
COc1ncccc1CNC(=O)NCCNC(=O)c1ccco1 | class 1
CN(CCCOc1ccccc1)C(=O)CN1CCc2cncnc2C1 | class 0
O=C(Nc1nccs1)NC1CCN(Cc2ccccc2)C1 (stereo not given) | class 0
Cc1ccc(CC(=O)N2Cc3nccn3CC(Cn3cccn3)C2)cc1 (stereo not given) | class 1
Cc1cc(CN(C)C(=O)c2ccc(Cl)c(S(C)(=O)=O)c2)no1 | class 1
Cc1nc(C)n(CC2CCCN2Cc2nc(N)c3ccccc3n2)n1 (stereo not given) | class 1
CC(=O)Nc1nc(C(=O)Nc2ccc(F)cc2)cs1 | class 1
O=C(c1ccco1)N1C[C@H]2CCCN(CC3CCOCC3)[C@H]2C1 | class 1

Strictly below 20% in Percent Effect? Cc1cnn(CCNCCCOc2ccccc2)c1
class 1

Strictly below 20% in Percent Effect? Cc1nn(C)c(N(C)C)c1CNCc1ccccc1CN(C)C
class 1

Strictly below 20% in Percent Effect? Cc1cc(C(=O)N2CCCC(c3noc(C)n3)C2)[nH]n1 (stereo not given)
class 0

Strictly below 20% in Percent Effect? Cc1cnn(CC2CCCN2CC(=O)Nc2cc(C)nn2C)c1 (stereo not given)
class 1

Strictly below 20% in Percent Effect? COc1ncc(-c2nccn2CCN(C)C)cn1
class 1

###

Molecular target: Chromo domain-containing protein 1 (Saccharomyces cerevisiae (strain ATCC 204508 / S288c) (Baker's yeast)) (UniProt P32657)
Sequence (P32657 whole entry, the tested form may be a part): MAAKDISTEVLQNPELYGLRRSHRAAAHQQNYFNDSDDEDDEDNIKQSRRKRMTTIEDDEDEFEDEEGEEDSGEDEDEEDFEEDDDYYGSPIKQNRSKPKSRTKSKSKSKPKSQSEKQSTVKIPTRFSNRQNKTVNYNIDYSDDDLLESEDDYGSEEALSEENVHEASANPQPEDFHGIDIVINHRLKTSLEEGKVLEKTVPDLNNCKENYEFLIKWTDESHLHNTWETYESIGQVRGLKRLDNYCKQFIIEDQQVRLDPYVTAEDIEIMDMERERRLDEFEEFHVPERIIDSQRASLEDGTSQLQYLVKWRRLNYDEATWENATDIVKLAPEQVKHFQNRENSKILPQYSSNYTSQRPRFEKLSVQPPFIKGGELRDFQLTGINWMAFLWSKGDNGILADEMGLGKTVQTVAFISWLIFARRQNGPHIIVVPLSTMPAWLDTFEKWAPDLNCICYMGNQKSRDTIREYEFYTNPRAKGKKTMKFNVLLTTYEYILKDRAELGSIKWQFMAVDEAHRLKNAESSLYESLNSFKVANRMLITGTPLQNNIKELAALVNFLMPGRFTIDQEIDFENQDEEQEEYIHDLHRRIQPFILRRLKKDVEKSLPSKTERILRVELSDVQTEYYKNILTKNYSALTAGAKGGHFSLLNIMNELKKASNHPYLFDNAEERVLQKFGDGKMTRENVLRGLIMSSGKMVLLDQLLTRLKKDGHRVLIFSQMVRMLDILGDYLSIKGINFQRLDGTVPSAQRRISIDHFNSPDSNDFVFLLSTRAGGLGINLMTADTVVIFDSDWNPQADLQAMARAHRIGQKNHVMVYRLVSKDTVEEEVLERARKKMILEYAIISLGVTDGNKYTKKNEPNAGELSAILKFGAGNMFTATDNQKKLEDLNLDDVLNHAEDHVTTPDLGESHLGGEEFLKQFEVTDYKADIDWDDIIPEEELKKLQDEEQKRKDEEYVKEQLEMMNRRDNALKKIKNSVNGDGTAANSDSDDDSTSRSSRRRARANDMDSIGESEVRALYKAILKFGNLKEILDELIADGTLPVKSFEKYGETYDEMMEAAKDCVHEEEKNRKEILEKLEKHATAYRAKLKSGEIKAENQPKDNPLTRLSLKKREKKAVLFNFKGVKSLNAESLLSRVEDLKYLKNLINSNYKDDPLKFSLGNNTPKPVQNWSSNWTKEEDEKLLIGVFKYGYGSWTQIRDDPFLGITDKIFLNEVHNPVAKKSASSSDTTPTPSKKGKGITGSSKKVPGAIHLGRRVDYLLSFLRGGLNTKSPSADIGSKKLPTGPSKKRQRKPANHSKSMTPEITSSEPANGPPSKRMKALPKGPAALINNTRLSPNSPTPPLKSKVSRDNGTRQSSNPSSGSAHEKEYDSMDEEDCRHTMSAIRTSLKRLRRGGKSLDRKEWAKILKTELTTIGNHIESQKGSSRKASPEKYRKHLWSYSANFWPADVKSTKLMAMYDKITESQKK
Experiment: ScCHD-1 Enzyme Inhibition Assay; further: in the data most compounds retested in dose-response had high values
Format: functional
Set-up: scale not given: direction of the effect not stated beside the values
Details: 30 µM
property label: Percent Effect (%)
Answers are plain numbers, in %.

Would you please look over these solved cases?
Cn1cc(C(=O)N2CC[C@@H]3[C@@H]2CCN3Cc2cccc(F)c2)cn1 | 1.12
CC(O)CN1CCN(C(=O)c2cn(-c3ccccc3Cl)nn2)CC1 (centres undefined) | -4.02
Cn1ncc2c1NC(=O)CC2c1ccccc1Cl (centres undefined) | -0.659
CNc1cc2c(nn1)CCN(C(=O)c1ccoc1)C2 | -15
Cc1ncsc1C(=O)NCc1cccs1 | -4.46

For the 3 compounds below, give their Percent Effect values.
1. COc1ccccc1-c1noc(CN2CCCC2Cn2cccn2)n1 (centres undefined)
2. CC(C)N1CCO[C@H]2CN(C(=O)c3ccc(N(C)C)cc3)C[C@H]21
3. CCc1nc(C2CCCN2C(=O)CCn2cncn2)no1 (centres undefined)

-7.06
-3.55
-0.634

For the 7 compounds below, give their Percent Effect values.
1. CCNC(=O)[C@@H]1C[C@@H](NC(=O)Cc2ccccn2)CN1CCCSC
2. COCCC(=O)N1CC2(CCN(Cc3cccc(Cl)c3)CC2)C1
3. COc1ccc(C(=O)N2CC[C@H](CO)[C@H](O)C2)c(C)c1
4. CCOCC(O)CN1CCN(C(=O)c2cccnc2OC)CC1 (centres undefined)
5. CCOCC(=O)N1C[C@@H](O)[C@H](N(C)Cc2ccc(OC)cc2)C1
6. Cc1noc([C@@H]2CCCN2C(=O)C2CCN(C(=O)C3CCC3)CC2)n1
7. CCOc1ccnc(N2CCN(C(=O)c3cc(Cl)c[nH]3)CC2)n1

1. 0.131
2. -4.02
3. -7.71
4. 1.44
5. -14.5
6. 98.2
7. -5.03

For the 3 compounds below, give their Percent Effect values.
1. CN1CCOC(CNC(=O)CCCOCCc2ccccc2)C1 (centres undefined)
2. COCCN(Cc1ccc(F)cc1Cl)C(=O)c1cccc[n+]1[O-]
3. CCc1nc(CN2CCCN(C(=O)COCC3CC3)CC2)cs1

1. -6.94
2. -2.92
3. -6.08

For the 6 compounds below, give their Percent Effect values.
1. O=C([C@H]1CCCO1)N1CC[C@H](O)[C@@H]1Cc1ccncc1
2. Cc1cnn(C2CN(Cc3nc(-c4ccco4)no3)C2)c1
3. COc1c(CNC2CCSc3ccc(F)cc32)c(C)nn1C (centres undefined)
4. Cc1ccc(CN2CCC3(CC(C(=O)NCC4CC4)=NO3)C2)cc1C (centres undefined)
5. CNC(=O)[C@H]1C[C@@H]2CN(C(=O)Nc3ccc(F)cc3)C[C@H]1O2
6. Cn1c(CN2CCCC2)nnc1C1CCCN(C(=O)C2CCOCC2)C1 (centres undefined)

[-0.313, -2.84, -4.85, -7.33, -7.08, -11.7]

###

For each of the compounds below, state its Percent Effect.
Species on record: Homo sapiens
Test: To identify inhibition of the IFN signalling (Jak-Stat) pathway via expression of an eGFP reporter gene under the control of an IFN-stimulated response element (ISRE) containing MxA promoter.
Type: functional
Parameters: scale not given: direction of the effect not stated beside the values
Settings: 30 µM
Numbers only, in %.

CCS(=O)(=O)c1ccccc1N1CCC(NC(C)=O)CC1 | 11.3
O=C(c1cnc(-c2ccco2)s1)N1CCCC1Cn1cccn1 (configuration not stated) | 13
CCCn1ccc(C(=O)N2CCOC(c3nc(-c4cccs4)no3)C2)n1 (configuration not stated) | 1.83
CC(O)CN1CCN(C(=O)c2ccc(Br)o2)CC1 (configuration not stated) | 22.7
CCOC(=O)CNC(=O)c1cccnc1Oc1ccc(Cl)cc1 | 25.5
CCS(=O)(=O)N1CCCc2ccc(NC(=O)Cc3ccc(F)cc3)cc21 | 65.4

For the 2 compounds below, give their Percent Effect values.
1. NC(=O)c1ccc(S(=O)(=O)NC(=O)COc2ccc3c(c2)CCC3)cc1
2. O=C(CCc1ccccc1)Nc1ncccc1OC(F)F

[4.26, -3.51]

For the 3 compounds below, give their Percent Effect values.
1. Cc1ccc(-c2nc(CCNC(=O)CCN3CCOC3=O)co2)cc1
2. O=C(NCCC1CCCO1)c1ccccc1N1CCOCC1 (configuration not stated)
3. CCn1nnc2c1C(COC)CN(Cc1cccs1)C2 (configuration not stated)

33.2
8.12
-4.92

# get_value(readout='Percent Effect', item= Cc1cn2c(n1)CCC(NC(=O)c1cc(Br)cn1C)C2 (configuration not stated) )
12.4

###

Target: Chromo domain-containing protein 1 (Saccharomyces cerevisiae (strain ATCC 204508 / S288c) (Baker's yeast))
Assay: ScCHD-1 Enzyme Inhibition Assay; further: in the data most compounds retested in dose-response had high values
Type: functional
Design: scale not given: direction of the effect not stated beside the values
Details: 30 µM
For each of the compounds below, state its Percent Effect.
One number for each entry, in %.

Would you please look over these solved cases?
O=C(Nc1cnccn1)[C@@H]1COC[C@H]2CN(C3CCCC3)C[C@H]21 | -4.69
CC(=O)N1CCC2(CC1)C(=O)N(CC1CC1)c1ccccc12 | -7.42
Cc1ncc2c(n1)CN(Cc1nc3ccccc3o1)CC2 | -12.9
O=C(NCc1cc[nH]n1)NCC(c1ccc(F)cc1)N1CCOCC1 (stereo unspecified) | -7.47
CN(C)c1cncc(C2CCN(C(=O)CO)CC2)n1 | -10.6

Now let's try a different one.
# get_value(readout='Percent Effect', item= Cc1nc(CN(C)C(=O)Nc2cnn(CC3CCCO3)c2)cs1 (stereo unspecified) )
0.495

###

Biological target: Sialic acid-binding Ig-like lectin 9 (Homo sapiens) (UniProt Q9Y336)
Sequence (Q9Y336 whole entry): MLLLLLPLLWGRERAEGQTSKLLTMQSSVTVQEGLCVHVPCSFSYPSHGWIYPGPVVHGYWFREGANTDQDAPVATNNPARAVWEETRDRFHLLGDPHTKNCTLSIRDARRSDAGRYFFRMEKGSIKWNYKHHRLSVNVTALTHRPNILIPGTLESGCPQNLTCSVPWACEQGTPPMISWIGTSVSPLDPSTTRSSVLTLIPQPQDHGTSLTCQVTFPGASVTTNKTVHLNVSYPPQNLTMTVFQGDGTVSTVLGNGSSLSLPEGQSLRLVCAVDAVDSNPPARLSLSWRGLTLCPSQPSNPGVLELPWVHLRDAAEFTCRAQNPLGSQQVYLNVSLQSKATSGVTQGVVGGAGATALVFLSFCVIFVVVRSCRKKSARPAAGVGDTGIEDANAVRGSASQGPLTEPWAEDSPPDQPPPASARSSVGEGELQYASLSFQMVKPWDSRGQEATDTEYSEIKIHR
Experiment: Hs-Siglec9 ALPHAscreen SOP 20170721
Set-up: scale not given: direction of the effect not stated beside the values
Settings: 10 µM
property label: Percent Effect

Cc1nc2c(c(C)c1CC(=O)NCc1cccc(C#N)c1)c(=O)[nH]n2C | 0.967%
CCc1cccc(N2CCC(NC(=O)c3ccc(=O)[nH]n3)CC2)c1 | 1.07%
CCc1noc(C(C)N2CCN(c3ccc(C#N)cc3F)CC2)n1 (stereo unspecified) | -3.73%
CN(C)Cc1nc(C(C)(C)NC(=O)C2CC(=O)N(CC3CC3)C2)no1 (stereo unspecified) | 2.33%
N#Cc1cc(NS(=O)(=O)c2ccc(C(=O)O)cc2F)ccc1F | 0.735%

Now let's try a different one.
# get_value(readout='Percent Effect', item= CCOc1ncccc1CNC(=O)Nc1ccc(N(C)C)nc1 )
-6.42%
